- Tested on: LOX IMVI melanoma
- test_name: NCI-60 one-dose screen, 48 h
- condition_notes: 10 µM unless noted
About 83,000 compounds went through this panel and 20% of them were active in at least one assay; those are over-represented in the sample as a whole. Active and inactive are the calls of the source. Rule for the calls: active = growth percent below 10; inactive = the rest.
Valid outcomes are listed here; reply with one: Y (active), N (inactive)

Assay outcome for COc1cc(N=Nc2cc(S(=O)(=O)O)cc3cc(S(=O)(=O)O)cc(O)c23)c(C)cc1N=Nc1c(S(=O)(=O)O)cc2cc(Nc3ccccc3)ccc2c1O : what was it?
N

Assay outcome for c1ccc2c3c([nH]c2c1)C(c1ccc(C2NCCc4c2[nH]c2ccccc42)cc1)NCC3 (centres undefined) : what was it?
Y

Assay outcome for CCOc1ccccc1C(=O)/C=C/c1cc2ccccc2[nH]c1=O : what was it?
Y

Assay outcome for C#C[C@@]1(O)[C@@H](CO)O[C@@H](n2cc(Cl)c3c(N)ncnc32)[C@@H]1O : what was it?
Y

Assay outcome for CCc1c(C(=O)N[C@@H](C(=O)OCc2ccccc2)C(C)O)[nH]c2ccc(Cl)cc12 (some centres undefined) : what was it?
N

Assay outcome for Cc1nc2sc(C(=O)Nc3cccc(Cl)c3C)c(N)c2cc1C(C)O (centres undefined) : what was it?
N

Assay outcome for O=C(Nc1nc(-c2ccccc2Cl)cs1)c1cc(-c2ccc(Br)cc2)nc2ccccc12 : what was it?
N

Assay outcome for Clc1ccc2c(NCCCNC3CCCCC3)ccnc2c1 : what was it?
N

Assay outcome for COc1ccc(/C=C(/C(=O)N2CCCC2)c2cc(OC)c(OC)c(OC)c2)cc1 : what was it?
N
